Let's look at some molecules and their measured pIC50.
# TARGET_OR_TEST_SYSTEM: Dimer of Gag-Pol polyprotein [489-587] (Human immunodeficiency virus 1, UniProt P12497)
# Construct: 489-587
# PROTOCOL_DESCRIPTION: Protease Inhibition Assay
# MEASUREMENT_CONTEXT: pH 5.5; 30 °C
Keep in mind that pIC50 stands for -log10 of concentration in molar terms.

INSERT INTO measurements (compound_smiles, target_or_test_system, val) VALUES
  ('CC(C)(C)OC(=O)N[C@@H](Cc1ccccc1)[C@@H](O)C[C@@H](Cc1ccc(OCCN2CCCCC2)cc1)C(=O)N[C@H]1c2ccccc2C[C@H]1O', 'Dimer of Gag-Pol polyprotein [489-587] (Human immunodeficiency virus 1, UniProt P12497)', 8.80);

Request the reported pIC50 associated with CC(C)(C)OC(=O)N[C@@H](Cc1ccccc1)[C@@H](O)C[C@@H](Cc1ccc(OCCN2CCCC2)cc1)C(=O)N[C@H]1c2ccccc2C[C@H]1O 8.74

Now give it for CC(C)(C)OC(=O)N[C@@H](Cc1ccccc1)[C@@H](O)C[C@@H](Cc1ccc(OCC(=O)O)cc1)C(=O)N[C@H]1c2ccccc2C[C@H]1O too. 10.40

----------
# TARGET_OR_TEST_SYSTEM: Dimer of Gag-Pol polyprotein [489-587] (Human immunodeficiency virus 1)
# Construct: 489-587
# PROTOCOL_DESCRIPTION: Protease Inhibition Assay
# MEASUREMENT_CONTEXT: pH 5.5; 30 °C
# Procedure: Sensitivity of HIV-1 protease activity to protease inhibitors was determined by a peptide substrate cleavage assay. Protease products were analyzed on a reverse-phase high-pressure liquid chromatograph.
Below, each entry is listed with its recorded IC50.

In the examples that follow, each entry is paired with its recorded IC50.
INSERT INTO measurements (compound_smiles, target_or_test_system, value_kind, val) VALUES
  ('CC(C)(C)OC(=O)N[C@@H](Cc1ccc(O)cc1)[C@@H](O)C[C@@H](Cc1ccccc1)C(=O)N[C@H]1c2ccccc2C[C@H]1O', 'Dimer of Gag-Pol polyprotein [489-587] (Human immunodeficiency virus 1)', 'IC50', '0.35 nM'),
  ('CC(C)(C)OC(=O)N[C@@H](Cc1ccccc1)[C@@H](O)C[C@@H](Cc1ccc(OCCN2CCS(=O)(=O)CC2)cc1)C(=O)N[C@H]1c2ccccc2C[C@H]1O', 'Dimer of Gag-Pol polyprotein [489-587] (Human immunodeficiency virus 1)', 'IC50', '0.08 nM');

For the molecule CC(C)(C)OC(=O)N[C@@H](Cc1ccccc1)[C@@H](O)C[C@@H](Cc1ccc(OCc2ccccc2)cc1)C(=O)N[C@H]1c2ccccc2C[C@H]1O , what IC50 is on record? 0.18 nM

Same lookup for CC(C)(C)OC(=O)N[C@@H](Cc1ccc(OCCN2CCOCC2)cc1)[C@@H](O)C[C@@H](Cc1ccccc1)C(=O)N[C@H]1c2ccccc2C[C@H]1O , please. 0.55 nM

How about COCCN(CCOC)CCOc1ccc(C[C@H](C[C@H](O)[C@H](Cc2ccccc2)NC(=O)OC(C)(C)C)C(=O)N[C@H]2c3ccccc3C[C@H]2O)cc1 ? 0.9 nM

Let us now turn to CC(C)(C)OC(=O)N[C@@H](Cc1ccccc1)[C@@H](O)C[C@@H](Cc1ccc(OCCO)cc1)C(=O)N[C@H]1c2ccccc2C[C@H]1O 0.09 nM
